In this section, each of the binders is paired with its reported EC50 (nM), TcdA neutralization, Vero cells.
# experimental.target: full-length TcdA (TcdA1-2710) (Clostridioides difficile strain VPI10463, UniProt P16154 1-2710)
# Sequence (P16154 whole entry): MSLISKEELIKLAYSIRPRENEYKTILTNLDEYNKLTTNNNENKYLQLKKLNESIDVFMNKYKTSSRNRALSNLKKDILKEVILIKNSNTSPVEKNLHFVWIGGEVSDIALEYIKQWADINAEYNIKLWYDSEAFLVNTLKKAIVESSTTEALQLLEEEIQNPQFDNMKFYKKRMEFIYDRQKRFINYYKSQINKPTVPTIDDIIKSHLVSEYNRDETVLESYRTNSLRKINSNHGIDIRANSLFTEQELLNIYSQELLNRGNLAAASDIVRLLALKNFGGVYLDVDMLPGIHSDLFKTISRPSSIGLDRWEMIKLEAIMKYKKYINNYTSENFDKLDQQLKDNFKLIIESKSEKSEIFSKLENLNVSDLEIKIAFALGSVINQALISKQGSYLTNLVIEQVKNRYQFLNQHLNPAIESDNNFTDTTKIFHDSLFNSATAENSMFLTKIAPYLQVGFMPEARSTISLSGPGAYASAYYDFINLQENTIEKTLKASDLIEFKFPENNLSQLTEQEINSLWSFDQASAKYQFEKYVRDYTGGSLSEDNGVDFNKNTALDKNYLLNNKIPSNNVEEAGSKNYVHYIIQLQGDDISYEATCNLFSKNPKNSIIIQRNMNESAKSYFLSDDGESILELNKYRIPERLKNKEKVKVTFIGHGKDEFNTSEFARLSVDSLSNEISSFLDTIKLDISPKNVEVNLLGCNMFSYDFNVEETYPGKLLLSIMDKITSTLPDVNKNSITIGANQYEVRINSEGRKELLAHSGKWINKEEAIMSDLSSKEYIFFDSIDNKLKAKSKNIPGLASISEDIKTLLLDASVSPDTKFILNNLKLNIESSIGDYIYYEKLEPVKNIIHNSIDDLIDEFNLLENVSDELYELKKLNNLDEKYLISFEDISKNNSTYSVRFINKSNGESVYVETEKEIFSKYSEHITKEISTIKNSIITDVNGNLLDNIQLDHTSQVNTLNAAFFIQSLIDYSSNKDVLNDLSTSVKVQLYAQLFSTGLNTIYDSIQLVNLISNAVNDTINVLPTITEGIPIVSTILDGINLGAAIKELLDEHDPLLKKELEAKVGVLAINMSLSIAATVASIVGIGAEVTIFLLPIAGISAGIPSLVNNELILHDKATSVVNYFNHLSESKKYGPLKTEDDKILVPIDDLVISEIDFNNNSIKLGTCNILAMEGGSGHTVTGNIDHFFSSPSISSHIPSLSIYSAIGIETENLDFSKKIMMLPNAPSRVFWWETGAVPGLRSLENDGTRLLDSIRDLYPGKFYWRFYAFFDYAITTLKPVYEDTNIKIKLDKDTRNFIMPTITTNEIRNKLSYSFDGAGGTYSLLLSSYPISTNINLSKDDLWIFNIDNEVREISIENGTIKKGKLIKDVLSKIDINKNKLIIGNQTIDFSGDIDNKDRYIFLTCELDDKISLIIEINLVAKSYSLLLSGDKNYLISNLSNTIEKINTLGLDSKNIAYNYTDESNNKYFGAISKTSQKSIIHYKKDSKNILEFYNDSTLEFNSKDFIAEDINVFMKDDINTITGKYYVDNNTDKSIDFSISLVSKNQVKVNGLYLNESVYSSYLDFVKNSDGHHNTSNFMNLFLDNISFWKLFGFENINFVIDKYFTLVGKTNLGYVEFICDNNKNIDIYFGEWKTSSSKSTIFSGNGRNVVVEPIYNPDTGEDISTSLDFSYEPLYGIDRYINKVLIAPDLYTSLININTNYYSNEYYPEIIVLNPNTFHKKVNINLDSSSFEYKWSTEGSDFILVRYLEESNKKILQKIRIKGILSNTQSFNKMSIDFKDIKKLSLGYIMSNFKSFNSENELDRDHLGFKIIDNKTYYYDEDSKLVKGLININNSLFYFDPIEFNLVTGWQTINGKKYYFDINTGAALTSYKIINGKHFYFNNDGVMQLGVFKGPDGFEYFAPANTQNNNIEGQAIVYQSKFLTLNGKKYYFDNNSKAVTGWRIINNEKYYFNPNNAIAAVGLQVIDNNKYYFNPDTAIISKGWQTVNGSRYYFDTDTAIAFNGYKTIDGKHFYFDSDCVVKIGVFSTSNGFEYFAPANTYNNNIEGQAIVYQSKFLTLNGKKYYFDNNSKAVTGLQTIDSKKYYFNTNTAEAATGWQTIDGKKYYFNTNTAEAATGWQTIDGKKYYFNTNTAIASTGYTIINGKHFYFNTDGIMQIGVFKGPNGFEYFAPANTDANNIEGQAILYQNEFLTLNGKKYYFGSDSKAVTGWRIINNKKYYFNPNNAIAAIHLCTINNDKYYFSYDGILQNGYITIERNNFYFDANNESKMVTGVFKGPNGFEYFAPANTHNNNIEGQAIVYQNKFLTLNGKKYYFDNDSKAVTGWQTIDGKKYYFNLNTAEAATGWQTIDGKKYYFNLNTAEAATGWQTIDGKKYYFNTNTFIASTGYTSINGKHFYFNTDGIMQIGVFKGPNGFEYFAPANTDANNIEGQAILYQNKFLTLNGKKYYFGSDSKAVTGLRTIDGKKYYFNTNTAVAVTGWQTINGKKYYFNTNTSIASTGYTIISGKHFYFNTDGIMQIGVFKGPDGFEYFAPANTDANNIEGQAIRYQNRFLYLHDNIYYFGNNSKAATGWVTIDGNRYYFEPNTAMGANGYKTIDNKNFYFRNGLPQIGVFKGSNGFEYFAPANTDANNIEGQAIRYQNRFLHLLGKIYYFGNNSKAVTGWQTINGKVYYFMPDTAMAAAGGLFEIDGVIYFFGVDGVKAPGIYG
# run.description: cell-based or functional assay
measured.quantity: EC50 (nM), TcdA neutralization, Vero cells

>>> test_result("A1H5 (VHH) VHH: QVQLQESGGGLVQPGGSLRLSCAASGSIFSINAMGWYRQAPGKQRELVASITSGGSTNYADSVKGRFTISRDGAKNTVYLQMNSLKPEDTAVYYCHVPWTDDFGWAVKDYWGQGTQVTVSS")
15.7
>>> test_result("A2A6 (VHH) VHH: QVQLQESGGGLVQAGGSLRLSCADSGRTFSRYEMGWSRQAPGKEREFVAVINRLGRSTYYADSVKGRFTISRDNAKNTVYLQMNSLKPEDTAVYYCAAGVRLNLPQIPDVIDFWGQGTQVTVSS")
1
>>> test_result("A1G6 (VHH) VHH: QVQLQESGGGLVQPGGSLRLSCAASGRAFSSYAMGWFRQTPGKEREFVAVISWSGGSTYYADSVKGRFTISRDNTKNMVYLQMMSLKPEDTAVYYCAADFSQPLLATVPDDYDYWGQGTQVTVSS")
6.4

Data origin: patent US20250179155A1
